Origin of the recorded values: the DeepSol protein solubility set

# test_protocol: soluble on expression in E. coli; label from the status in PepcDB or PDB records
measure: soluble on expression in E. coli

Use these answered entries as a reference point.
• MGSDKIHHHHHHAAVNRVGMGSSWRAGVKVGVGVSYQFEPGWIGLKSGLYYANRGYSLGDYPRTTESATYVLKEMMTGGITQHFLQLPVMADFSWKVSKEVRMHLAVGMYAGVSVKNDTNWGSSFTMGYSKEPQALGKYVKSTGLGYSYGYGHSGYDEAENADHPFRDVNSFDWGLTTSFGIEVNNWVMNLGYDLSLGDEGGNYKIDGDNFSLYEVRSVGANYNTMSLTVGYKFKL = not soluble
• MGSDKIHHHHHHVQDKNFDKLAQKFAKNIYGTPKGDIRAAVLWRDLAPALAKLGDRKLRVLDAGGGFGYFSQKLARLGHEVVLCDISAEMLAQAQEQIDASPEPLAIQLIHAPIQALSVEQHGYFDIILCHAVVEWLTDAKPTMAGLLTMLKPAGLFSLMFYNKEAMRFHALVSGNFDYVAADLKVKKKVQLTPTHPLYIQEVKEWFSDWQMSLISQSGVRVIHDYLKKSQPVDFDYQKLLQMELEYSQREPYISLGRYVHFLGQSPAV = not soluble
• MLKIDAIAFFGSKTKLANVAGVRLASVAAWGELVPEGRAMRLQEASGGELQYDPKVYDEYRKAKRAGRLNNENHH = not soluble
• MFKSVAKLGKSPIFYLNSQRLIHIKTLTTPNENALKFLSTDGEMLQTRGSKSIVIKNTDENLINHSKLAQQIFLQCPGVESLMIGDDFLTINKDRMVHWNSIKPEIIDLLTKQLAYGEDVISKEFHAVQEEEGEGGYKINMPKFELTEEDEEVSELIEELIDTRIRPAILEDGGDIDYRGWDPKTGTVYLRLQGACTSCSSSEVTLKYGIESMLKHYVDEVKEVIQIMDPEQEIALKEFDKLEKKLESSKNTSHEK = soluble
• SNAEQVRQAGIDDIGGILELIHPLEEQGILVRRSREQLEQEIGKFTIIEKDGLIIGCAALYPYSEERKAEMACVAIHPDYRDGNRGLLLLNYMKHRSKSENINQIFVLTTHSLHWFREQGFYEVGVDYLPGAKQGLYNFQRKSKILALDL = soluble
• MSLGIKVNRLKVEDQILRQFGGNLLLEKDGNRGFIAFIGRGLIDFTERIRILATVSRIKDILFIGTAGSLSNEILIGDLNIPKYAIPFENVSDFYADPTIAIPQADEKLLNEVYEYAEETGVKTHSTLHATLLFPYSETTEFLNYLLNIGVSTIDMEVSAFYKMSRFYGKRAVAVLRISDMPLIELHKQEELIKARREIAVNAVFRITLRFLKLEGHHHHHH = not soluble

Now take the following sequence into account.
Exercise: May I ask what soluble on expression in E. coli has been recorded for MEFAKMCFEKLYGVDTSEAKEMYNSVYDVMKAMLKEYTVIFKGPNTQSSQSNPPSSTAARDIFACELAEDSNVEFERMDRSYKEMVNEIRVTDPKDELDIYLKAEVENPKTLPGMEWDVLSWWRLNSQKYPVLSEIARDVLAMQVSYVASESAFSTSGRLLEPSRSCLTHYMVETLVCLEQWLKSEIKLSENTFLTNTQLLADIELLDKLEKGNFIYVVY ?
Key: soluble

====

# test_protocol: soluble on expression in E. coli; label from the status in PepcDB or PDB records
measure: soluble on expression in E. coli

- GPGSMEDYKAKGNDAFKAKRYQEAIDWYTKAIELDPNGEASGALYSNRAGSWQNLNNFEKAAADSEQCIRLRPDWLKGYFRLGVAMESMVKYDEAQKAFQKALQLSPGNEEVMDKLHAINTKVRERNEKTKSQQCKTPEEAKQLGNSFFKDGKYDQAAEFYTRAIELQTEPVKEKAVYYTNRAACHQQTHMYSLMVDDCNAAIEIDPANVKAYLRRGIAYEGMEKWKLALEDYTKAQSISPGVAGASQGILRCQRVLRS: soluble
- MDNTYRDEKVNGCGPGDVNLMLELLEKGEKIGGKSADQSSLFVALCRSVGIPAREVFGIRVLPSSFSEGLSIKPGSKDITKAQHCRAEFWAGEWIPVDPADVTKLILKEKLPRNHPRVNFARRYFFGNWDPHWIAYNWGRDFVLEPPQRVKPLNLFGYPYAEVKGEPLNWLEPKSFVYRIKLVRA: not soluble
- MASCHEPSAFKSLCAHPSTLTATFDVSPYSSAFHLPIHPALLSNTHLLHLNTYNPTTYESTERLFEQNNNNSEKAESCSSRDSSHDSSSPTSTGGSSRDNVIVRNELKRKKDQVKDVAYWERRRKNNDAAKRSRDQRRMKEDEMAHRATSLERENMLLRVELDQLRAETDKLRALILTTPTTSISIPIPLQSLPLLTAQTAPASSVITTSQMYAPLPLKIPKTPSPSLLRSTVLVSNSSKT: not soluble
- MSSKEQKTPNEQVSEEMENTAEQQVEATQETGECVDPRVAELEVQLSDALQRERESLLRAKAEVENIRRRTELDVEKAHKFALERFSSELLPVIDNLERALDTADKTNTELISMIEGVELTLKSLLDAVGKFGIEVVGETHVPFNPEVHQAMTMLESADHEPNHVMMVMQKGYTLNGRLLRPAMVAVSKAKS: not soluble
- MLGIYVLSVDRQSPFAQALKVGDTVTEVNGHHFNSMTGYQRYIQRQKVGQRATITYQRNGKTHHVTAKLMRLPTKKAGIGITLEHHHHHH: not soluble

Now take the following sequence into account.
Exercise: May I ask what soluble on expression in E. coli has been recorded for MTAASLDPTAFSLDAASLAARLDAVFDQALRERRLVGAVAIVARHGEILYRRAQGLADREAGRPMREDTLFRLASVTKPIVALAVLRLVARGELALDAPVTRWLPEFRPRLADGSEPLVTIHHLLTHTSGLGYWLLEGAGSVYDRLGISDGIDLRDFDLDENLRRLASAPLSFAPGSGWQYSLALDVLGAVVERATGQPLAAAVDALVAQPLGMRDCGFVSAEPERFAVPYHDGQPEPVRMRDGIEVPLPEGHGAAVRFAPSRVFEPGAYPSGGAGMYGSADDVLRALEAIRANPGFLPETLADAARRDQAGVGAETRGPGWGFGYLSAVLDDPAAAGTPQHAGTLQWGGVYGHSWFVDRALGLSVLLLTNTAYEGMSGPLTIALRDAVYAR ?
Key: soluble
